pIC50: −log10 of the molar value.
The following molecules were reported with pIC50 values on Macrophage colony-stimulating factor 1 receptor (Homo sapiens, UniProt P07333) in different studies.

Solved cases (5 shown):
CC(C)CS(=O)(=O)Nc1ccc(F)c(C(=O)c2c[nH]c3ncc(Cl)cc23)c1F: ≥ 5.00
CCCS(=O)(=O)Nc1ccc(F)c(C(=O)c2c[nH]c3ncc(C#CCN(CC)CC)cc23)c1F: ≥ 5.00
Cn1cc(-c2cnc3[nH]cc(C(=O)c4cccc(NS(=O)(=O)c5cccc(C(F)(F)F)c5)c4)c3c2)cn1: ≥ 5.00
CCOc1ccc(Nc2ccc(C(=O)c3c[nH]c4ncc(C)cc34)c(F)n2)cn1: > 8.00
COc1ccc(Nc2ccc(C(=O)c3c[nH]c4ncnc(NC5CC5)c34)c(F)n2)cn1: > 8.00

What reported pIC50 corresponds to Cn1cc(-c2cnc3[nH]cc(Cc4c(Cl)ccc(OCC(F)(F)F)c4Cl)c3c2)cn1 on Macrophage colony-stimulating factor 1 receptor (Homo sapiens, UniProt P07333)?
≥ 5.00

What reported pIC50 corresponds to COc1ccc2[nH]c(COc3cc(F)c(Cc4c[nH]c5ncc(Cl)cc45)cc3OC)nc2c1 on Macrophage colony-stimulating factor 1 receptor (Homo sapiens, UniProt P07333)?
≥ 5.00

What reported pIC50 corresponds to CON(C)C(=O)c1ncc(NC(=O)c2cc(NC(=O)c3cccc(C(C)(C)C#N)c3)ccc2C)s1 on Macrophage colony-stimulating factor 1 receptor (Homo sapiens, UniProt P07333)?
8.15

* * *

The following compounds were reported with IC50 values on Macrophage colony-stimulating factor 1 receptor (Homo sapiens) in different studies.

Solved cases (6 shown):
COc1ccnc2[nH]cc(Cc3ccc(NCc4ccc(C(F)(F)F)cc4)nc3)c12: ≤ 10 µM
O=C(Nc1ccc(Cl)cc1)Nc1cccc(C(=O)c2c[nH]c3ncccc23)c1: ≤ 10 µM
O=C(Nc1ccc(F)c(Cc2c[nH]c3ncc(Cl)cc23)c1F)NC1CCCC1: ≤ 10 µM
COc1ncc(F)cc1CNc1ccc(Cc2c[nH]c3ncnc(O)c23)cn1: ≤ 10 µM
Cc1cncc(Nc2ccc(C(=O)c3c[nH]c4ncnc(C5CC5)c34)c(F)n2)c1: < 1 µM
COCCOc1cnc2[nH]cc(C(=O)c3c(F)ccc(NS(=O)(=O)c4cccc(F)c4)c3F)c2c1: ≤ 10 µM

What reported IC50 corresponds to CCOc1ccc(Nc2ccc(Cc3c[nH]c4ncnc(OC)c34)c(F)n2)cn1 on Macrophage colony-stimulating factor 1 receptor (Homo sapiens)?
< 0.01 µM

What reported IC50 corresponds to CC(C)(C)OC(=O)[C@H]1CC(NCc2cccc(-c3cnc(N)c(NCc4c(Cl)cccc4Cl)n3)c2)CCN1 (some centres unmarked) on Macrophage colony-stimulating factor 1 receptor (Homo sapiens)?
< 0.1 µM

* * *

The following compounds were reported with pIC50 values on Macrophage colony-stimulating factor 1 receptor (Homo sapiens) in different studies.
pIC50: −log10 of the molar value.

O=C(Cc1ccc(-c2cnc3[nH]nc(C4CC4)c3c2)cc1F)Nc1cncc(C(F)(F)F)c1: 5.00 to 10.00
O=C(c1cc(O)ccc1F)c1c[nH]c2ncc(-c3cccnc3)cc12: ≥ 5.00

Next compound, pIC50 to be filled in.
What reported pIC50 corresponds to COc1cc2c(Oc3ccc(NC(=O)C4(C(=O)Nc5ccc(F)cc5)CC4)cc3)ccnc2cc1OC(=O)N1Cc2cn(S(C)(=O)=O)nc2C1 on Macrophage colony-stimulating factor 1 receptor (Homo sapiens)?
< 6.00

* * *

pIC50: −log10 of the molar value.
The following molecules were reported with pIC50 values on Macrophage colony-stimulating factor 1 receptor (Homo sapiens, UniProt P07333) in different studies.

Clc1ccc(COc2ccc(Cc3c[nH]c4ncccc34)cc2)cc1: ≥ 5.00
CN(C)C1CCN(c2ccc(Nc3ncc4cc(C#N)c(=O)n(C5CCCC5)c4n3)cc2F)CC1: 8.60
CCCS(=O)(=O)Nc1ccc(F)c(C(=O)c2c[nH]c3ncc(OC4CCCC4)cc23)c1F: ≥ 5.00
CCc1ccc(S(=O)(=O)Nc2ccc(F)c(C(=O)c3c[nH]c4ncc(Cl)cc34)c2F)cc1: ≥ 5.00
Fc1nc(NCc2ccnc(C(F)(F)F)c2)ccc1Cc1c[nH]c2ncncc12: ≥ 5.00
CCNc1ncnc2[nH]cc(C(=O)c3ccc(Nc4ccc(OC)nc4)nc3F)c12: > 8.00

What reported pIC50 corresponds to CCOc1ncnc2[nH]cc(C(=O)c3ccc(Nc4ccc(OC)nc4)nc3F)c12 on Macrophage colony-stimulating factor 1 receptor (Homo sapiens, UniProt P07333)?
> 6.00

What reported pIC50 corresponds to O=C(Nc1ccc(F)cc1)C1(C(=O)Nc2cc(Oc3nccc(-c4cn[nH]c4)n3)ccc2F)CC1 on Macrophage colony-stimulating factor 1 receptor (Homo sapiens, UniProt P07333)?
> 5.00

* * *

pIC50: −log10 of the molar value.
The following compounds were reported with pIC50 values on Macrophage colony-stimulating factor 1 receptor (Homo sapiens, UniProt P07333) in different studies.

Solved cases (5 shown):
O=C(NCC1CC1)Nc1ccc(F)c(Cc2c[nH]c3ncc(Cl)cc23)c1F: ≥ 5.00
COc1cncc(Nc2ccc(C(=O)c3c[nH]c4ncnc(NC5CC5)c34)c(F)n2)c1: > 7.00
O=C(c1c(F)ccc(NS(=O)(=O)c2ccc(-c3ccccn3)s2)c1F)c1c[nH]c2ncc(Cl)cc12: ≥ 5.00
CCc1ccc(Nc2ccc(C(=O)c3c[nH]c4ncnc(C5CC5)c34)c(F)n2)cn1: > 8.00
COc1cccc(Cc2c[nH]c3nccc(Br)c23)c1: ≥ 5.00

What reported pIC50 corresponds to COc1ccc(NC(=O)Nc2cccc(C(=O)c3c[nH]c4ncc(Cl)cc34)c2)cn1 on Macrophage colony-stimulating factor 1 receptor (Homo sapiens, UniProt P07333)?
≥ 5.00

What reported pIC50 corresponds to CCCCNC(=O)Nc1ccc(F)c(C(=O)c2c[nH]c3ncc(Br)cc23)c1 on Macrophage colony-stimulating factor 1 receptor (Homo sapiens, UniProt P07333)?
≥ 5.00

What reported pIC50 corresponds to Cn1cc(-c2cnc3[nH]cc(C(=O)c4cccc(NS(=O)(=O)C5CC5)c4)c3c2)cn1 on Macrophage colony-stimulating factor 1 receptor (Homo sapiens, UniProt P07333)?
≥ 5.00

What reported pIC50 corresponds to Cc1ccc(Cl)c(C(=O)Nc2cccc([C@@H](C)Oc3cc(Cl)cnc3N)c2)c1 on Macrophage colony-stimulating factor 1 receptor (Homo sapiens, UniProt P07333)?
≥ 7.30

What reported pIC50 corresponds to Fc1ccc(OCC(F)(F)F)c(Cl)c1Cc1c[nH]c2ncccc12 on Macrophage colony-stimulating factor 1 receptor (Homo sapiens, UniProt P07333)?
≥ 5.00

* * *

The following compounds were reported with pIC50 values on Macrophage colony-stimulating factor 1 receptor (Homo sapiens) in different studies.
pIC50: −log10 of the molar value.

Solved cases (8 shown):
Clc1ccc(COc2ccc(Cc3c[nH]c4ncccc34)cc2Cl)cc1: ≥ 5.00
COc1cc(OC)cc(C(=O)c2c[nH]c3ncc(-c4cccc(NC(C)=O)c4)cc23)c1: ≥ 5.00
Cc1ncc(CNc2ccc(Cc3c[nH]c4ncncc34)c(F)n2)cn1: ≥ 5.00
OC(c1c(F)ccc(F)c1F)c1c[nH]c2ncc(-c3cccnc3)cc12 (stereo not drawn): ≥ 5.00
O=C(c1c(F)ccc(NS(=O)(=O)CCC(F)(F)F)c1F)c1c[nH]c2ncc(Cl)cc12: ≥ 5.00
Nc1ncc(-c2ccc(CNC3CCN[C@@H](C(=O)OC4CCCC4)C3)cc2)nc1NCc1c(Cl)cccc1Cl (stereo partly drawn): > 7.00
COc1cnc2[nH]cc(C(=O)c3c(F)ccc(NS(=O)(=O)c4cccc(C(F)(F)F)c4)c3F)c2c1: ≥ 5.00
CS(=O)(=O)N1CCC(Nc2ncc3cc(C#N)c(=O)n(C4CC5CC5C4)c3n2)CC1 (stereo not drawn): 6.78

What reported pIC50 corresponds to CCCCOc1ccc(NC(=O)Nc2cccc(C(=O)c3c[nH]c4ncc(Cl)cc34)c2)cc1 on Macrophage colony-stimulating factor 1 receptor (Homo sapiens)?
≥ 5.00

What reported pIC50 corresponds to COc1cc(Cc2c[nH]c3ncccc23)ccc1OCc1ccc(Cl)cc1Cl on Macrophage colony-stimulating factor 1 receptor (Homo sapiens)?
≥ 5.00

What reported pIC50 corresponds to COCCOc1ccc(F)c(C(=O)c2c[nH]c3ncccc23)c1Cl on Macrophage colony-stimulating factor 1 receptor (Homo sapiens)?
≥ 5.00

What reported pIC50 corresponds to CN(C)S(=O)(=O)Nc1cccc(C(=O)c2c[nH]c3ncc(-c4ccc(Cl)cc4)cc23)c1F on Macrophage colony-stimulating factor 1 receptor (Homo sapiens)?
≥ 5.00

What reported pIC50 corresponds to Cn1cc(-c2cnc3[nH]cc(C(=O)c4c(F)ccc(NS(=O)(=O)c5cccc(F)c5)c4F)c3c2)cn1 on Macrophage colony-stimulating factor 1 receptor (Homo sapiens)?
≥ 5.00

* * *

The following molecules were reported with IC50 values on Macrophage colony-stimulating factor 1 receptor (Homo sapiens, UniProt P07333) in different studies.

CCCS(=O)(=O)Nc1ccc(F)c(Cc2c[nH]c3ncc(OC)cc23)c1F: ≤ 10 µM

What reported IC50 corresponds to CC(C)N1CCOc2c(F)cc(-c3nc(Nc4ccc(C5CCN(C(=O)N(C)C)CC5)cn4)ncc3F)cc21 on Macrophage colony-stimulating factor 1 receptor (Homo sapiens, UniProt P07333)?
> 5 µM

What reported IC50 corresponds to CNC(=O)c1cn(-c2ccc3c(c2)CCC3)c2nc(Nc3ccc(OCC(O)CN(C)C)cc3)ncc2c1=O (stereo not shown) on Macrophage colony-stimulating factor 1 receptor (Homo sapiens, UniProt P07333)?
0.0056 µM

What reported IC50 corresponds to CCCc1ccc(S(=O)(=O)Nc2ccc(F)c(C(=O)c3c[nH]c4ncc(Cl)cc34)c2F)cc1 on Macrophage colony-stimulating factor 1 receptor (Homo sapiens, UniProt P07333)?
≤ 10 µM
